targetEntity: T1, cynomolgus monkey IL-33 expressed with a C-terminal hexahistidine tag (cynomolgus monkey)
T1 construct: also called MfIL-33-6His; Mf-IL-33-6His
T1 chain: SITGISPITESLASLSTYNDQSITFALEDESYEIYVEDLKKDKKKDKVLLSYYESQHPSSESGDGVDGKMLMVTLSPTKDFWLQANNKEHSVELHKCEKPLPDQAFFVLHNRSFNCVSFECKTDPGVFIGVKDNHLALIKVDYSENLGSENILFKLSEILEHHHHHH
assayInfo: BLI; captured MfIL-33-6His, mAb-1 step with Buffer
readoutType: mAb-2 Binding to the Pre-complex of mAb-1 & MfIL-33-6xHis (nm)
Give just the numeric value; nm need not be written.

Request: Form field: reported mAb-2 Binding to the Pre-complex of mAb-1 & MfIL-33-6xHis of H4H9667P (antibody, human IgG4, V domains shown, Human IgG4 Fc (H4H)) VH: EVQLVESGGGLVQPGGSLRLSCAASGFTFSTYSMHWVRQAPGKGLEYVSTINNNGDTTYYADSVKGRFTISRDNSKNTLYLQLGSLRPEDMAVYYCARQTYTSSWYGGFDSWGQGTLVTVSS VL: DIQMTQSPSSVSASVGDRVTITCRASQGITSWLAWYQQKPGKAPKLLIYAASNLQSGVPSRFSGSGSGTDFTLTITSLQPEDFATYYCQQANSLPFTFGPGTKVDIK
Response: 0.3

Request: Same thing, different binder: H4H9633P (antibody, human IgG4, V domains shown, Human IgG4 Fc (H4H)) VH: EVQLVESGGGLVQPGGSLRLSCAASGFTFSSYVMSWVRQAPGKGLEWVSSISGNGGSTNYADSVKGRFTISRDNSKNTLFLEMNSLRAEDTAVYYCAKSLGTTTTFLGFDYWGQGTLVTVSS VL: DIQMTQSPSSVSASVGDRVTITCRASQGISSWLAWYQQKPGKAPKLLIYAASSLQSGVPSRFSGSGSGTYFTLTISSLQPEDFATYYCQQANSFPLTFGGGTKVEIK
Response: 0.32

Request: What do we get for H4H9629P (antibody, human IgG4, V domains shown, Human IgG4 Fc (H4H)) VH: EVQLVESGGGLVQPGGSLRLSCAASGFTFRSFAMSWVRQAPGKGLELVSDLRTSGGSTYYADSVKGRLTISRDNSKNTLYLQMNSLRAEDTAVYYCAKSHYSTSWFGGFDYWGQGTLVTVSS VL: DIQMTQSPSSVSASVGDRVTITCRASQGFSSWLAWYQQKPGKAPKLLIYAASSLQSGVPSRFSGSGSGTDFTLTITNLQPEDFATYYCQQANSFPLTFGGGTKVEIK ?
Response: 0.3
